src = patent US20260028418A1

- target: T1, HER2-ECD-His (human, UniProt P04626 23-652)
- T1 construct: extracellular domain; also called HER2-His; HER2-ECD-His protein; not shown: His tag
- method notes: SPR (Biacore, CM5), IgG captured by anti-human IgG, HER2-ECD-His as analyte

# binder, Kd [nM]
rows = [
    ("hz39D2.23 (antibody, human IgG1, kappa, V domains shown) VH: QVQLVQSGSELKKPGASVKVSCKASGYTFTNYGVNWVRQAPGQGLEWMGWINTHTGEPTYAEEFKGRFVFSLDTSVSTAYLQISSLKAEDTAVYYCARDEYYVRVDYWGQGTTVTVSS VL: DIQMTQSPSSLSASVGDRVTITCKASQDINSYLSWFQQKPGKAPKTLIYRANRLVDGVPSRFSGSGSGQDYTLTISSLQPEDFATYYCLQLDEFPWTFGQGTKVEIKR", 2.8),
    ("hz39D2 (antibody, V domains shown, Humanized antibody, captured as IgG by anti-human IgG in SPR; also called humanized 39D2 antibody) VH: QVQLVQSGSELKKPGASVKVSCKASGYTFTNYGVNWVRQAPGQGLEWMGWINTHTGEPTYAEEFKGRFVFSLDTSVSTAYLQISSLKAEDTAVYYCARDDYYVRVDYWGQGTTVTVSS VL: DIQMTQSPSSLSASVGDRVTITCKASQDINSYLSWFQQKPGKAPKTLIYRANRLVDGVPSRFSGSGSGQDYTLTISSLQPEDFATYYCLQYDEFPWTFGQGTKVEIK", 37),
    ("hz39D2.22 (antibody, V domains shown) VH: QVQLVQSGSELKKPGASVKVSCKASGYTFTNYGVNWVRQAPGQGLEWMGWINTHTGEPTYAEEFKGRFVFSLDTSVSTAYLQISSLKAEDTAVYYCARDEYYVRVDYWGQGTTVTVSS VL: DIQMTQSPSSLSASVGDRVTITCKASQDINSYLSWFQQKPGKAPKTLIYRANRLVDGVPSRFSGSGSGQDYTLTISSLQPEDFATYYCLELDEFPWTFGQGTKVEIK", 2),
    ("hz39D2.14 (antibody, V domains shown) VH: QVQLVQSGSELKKPGASVKVSCKASGYTFTNYGVNWVRQAPGQGLEWMGWINTHTGEPTYAEEFKGRFVFSLDTSVSTAYLQISSLKAEDTAVYYCARDEYYVRTDYWGQGTTVTVSS VL: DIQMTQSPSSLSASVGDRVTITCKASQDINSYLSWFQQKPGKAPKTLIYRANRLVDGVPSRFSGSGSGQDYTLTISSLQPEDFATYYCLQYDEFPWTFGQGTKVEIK", 8),
]
